# tested.system: human FXR (NR1H4) (Homo sapiens (Human), UniProt Q96RI1)
# Sequence (Q96RI1 whole entry, the tested form may be a part): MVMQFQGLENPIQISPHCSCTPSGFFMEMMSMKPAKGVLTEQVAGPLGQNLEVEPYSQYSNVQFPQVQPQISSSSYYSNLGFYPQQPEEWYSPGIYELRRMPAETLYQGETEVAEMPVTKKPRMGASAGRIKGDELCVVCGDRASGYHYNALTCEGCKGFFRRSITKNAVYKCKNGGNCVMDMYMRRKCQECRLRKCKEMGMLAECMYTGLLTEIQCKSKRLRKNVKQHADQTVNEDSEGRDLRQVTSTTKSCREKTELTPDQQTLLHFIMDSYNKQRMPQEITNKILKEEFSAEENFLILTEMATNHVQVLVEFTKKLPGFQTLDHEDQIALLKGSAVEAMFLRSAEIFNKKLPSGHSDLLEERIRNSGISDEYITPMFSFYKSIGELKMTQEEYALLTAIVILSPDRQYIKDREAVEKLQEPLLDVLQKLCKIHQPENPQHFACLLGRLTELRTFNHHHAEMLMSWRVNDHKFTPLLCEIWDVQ
# assay.protocol: Human FXR (NR1H4) Assay (Gal4 promoter driven luciferase reporter, Indigo Bioscience kit);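 note: 100% equals the efficacy of CDCA; efficacy normalized to CDCA set as 100%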
# Assay type: cell-based
# run.conditions: read-out: Efficacy (%)
Hi there, I'd appreciate the recorded Emax for every entry that follows.
Numbers only, in %.

Record excerpt, results attached:
CC[C@H]1[C@@H](O)[C@@H]2[C@H](CC[C@]3(C)[C@@H]([C@H](C)CCOC(=O)NS(=O)(=O)C(F)(F)F)CC[C@@H]23)[C@@]2(C)CC[C@@H](O)C[C@@H]12 [Example 108]: 309
CC[C@H]1[C@@H](O)[C@@H]2[C@H](CC[C@]3(C)[C@@H]([C@H](C)CCOC(=O)NS(=O)(=O)c4ccccn4)CC[C@@H]23)[C@@]2(C)CC[C@@H](O)C[C@@H]12 [Example 72]: 305
CC[C@H]1[C@@H](O)[C@@H]2[C@H](CC[C@]3(C)[C@@H]([C@H](C)CCOC(=O)NS(=O)(=O)N4CCOCC4)CC[C@@H]23)[C@@]2(C)CC[C@@H](O)C[C@@H]12 [Example 59]: 428
CC[C@H]1[C@@H](O)[C@@H]2[C@H](CC[C@]3(C)[C@@H]([C@H](C)CCOC(=O)N4CC(CO)C4)CC[C@@H]23)[C@@]2(C)CC[C@@H](O)C[C@@H]12 [Example 214]: 194
CC[C@H]1[C@@H](O)[C@@H]2[C@H](CC[C@]3(C)[C@@H]([C@H](C)CCOC(=O)NS(=O)(=O)c4ccc5c(c4)CCCC5)CC[C@@H]23)[C@@]2(C)CC[C@@H](O)C[C@@H]12 [Example 89]: 278

Below are some molecules; for each one, tell me its Emax.
1. CC[C@H]1[C@@H](O)[C@@H]2[C@H](CC[C@]3(C)[C@@H]([C@H](C)COC(=O)NS(=O)(=O)c4ccc(OC)cc4)CC[C@@H]23)[C@@]2(C)CC[C@@H](O)C[C@@H]12 [Example 44-k]
2. CC[C@H]1[C@@H](O)[C@@H]2[C@H](CC[C@]3(C)[C@@H]([C@H](C)COC(=O)NS(=O)(=O)c4ccc(C)cc4)CC[C@@H]23)[C@@]2(C)CC[C@@H](O)C[C@@H]12 [Example 5]
3. CC[C@H]1[C@@H](O)[C@@H]2[C@H](CC[C@]3(C)[C@@H]([C@H](C)CCOC(=O)NCCC4CC4)CC[C@@H]23)[C@@]2(C)CC[C@@H](O)C[C@@H]12 [Example 177]
4. CC[C@H]1[C@@H](O)[C@@H]2[C@H](CC[C@]3(C)[C@@H]([C@H](C)COC(=O)NS(=O)(=O)c4ccc(-c5ccc(C(F)(F)F)cc5)s4)CC[C@@H]23)[C@@]2(C)CC[C@@H](O)C[C@@H]12 [Example 27]
5. CC[C@H]1[C@@H](O)[C@@H]2[C@H](CC[C@]3(C)[C@@H]([C@H](C)CCOC(=O)N[C@@H]4CCC[C@H]4O)CC[C@@H]23)[C@@]2(C)CC[C@@H](O)C[C@@H]12 [Example 207]
6. CC[C@H]1[C@@H](O)[C@@H]2[C@H](CC[C@]3(C)[C@@H]([C@H](C)CCOC(=O)N4CCC(CC)(CO)CC4)CC[C@@H]23)[C@@]2(C)CC[C@@H](O)C[C@@H]12 [Example 217]

1: 158; 2: 85; 3: 460; 4: 173; 5: 188; 6: 337

Below are some molecules; for each one, tell me its Emax.
1. CC[C@H]1[C@@H](O)[C@@H]2[C@H](CC[C@]3(C)[C@@H]([C@H](C)COC(=O)NS(=O)(=O)c4cccc(OC(C)(C)C)c4)CC[C@@H]23)[C@@]2(C)CC[C@@H](O)C[C@@H]12 [Example 29]
2. CC[C@H]1[C@@H](O)[C@@H]2[C@H](CC[C@]3(C)[C@@H]([C@H](C)CCOC(=O)N4CCC[C@@H]4CO)CC[C@@H]23)[C@@]2(C)CC[C@@H](O)C[C@@H]12 [Example 209]
3. CC[C@H]1[C@@H](O)[C@@H]2[C@H](CC[C@]3(C)[C@@H]([C@H](C)CCOC(=O)N4CCOCC4)CC[C@@H]23)[C@@]2(C)CC[C@@H](O)C[C@@H]12 [Example 160]
4. CC[C@H]1[C@@H](O)[C@@H]2[C@H](CC[C@]3(C)[C@@H]([C@H](C)CCOC(=O)N4CCN(c5ccccc5OC)CC4)CC[C@@H]23)[C@@]2(C)CC[C@@H](O)C[C@@H]12 [Example 170]
5. CC[C@H]1[C@@H](O)[C@@H]2[C@H](CC[C@]3(C)[C@@H]([C@H](C)CCOC(=O)NC4CC4)CC[C@@H]23)[C@@]2(C)CC[C@@H](O)C[C@@H]12 [Example 123]
6. CC[C@H]1[C@@H](O)[C@@H]2[C@H](CC[C@]3(C)[C@@H]([C@H](C)COC(=O)NS(=O)(=O)c4cccc(O)c4)CC[C@@H]23)[C@@]2(C)CC[C@@H](O)C[C@@H]12 [Example 38]
7. CC[C@H]1[C@@H](O)[C@@H]2[C@H](CC[C@]3(C)[C@@H]([C@H](C)CCOC(=O)NS(=O)(=O)CCC(=O)OC)CC[C@@H]23)[C@@]2(C)CC[C@@H](O)C[C@@H]12 [Example 92]

[186, 199, 142, 283, 379, 203, 218]
